src = patent US20170355774A1

Provide the recorded koff for the entries that follow.
MEASURED_ON: T1, mfGITR.mmh (Macaca fasicularis)
T1 construct: soluble monomeric construct; also called Macaca fasicularis (mf) GITR.mmh; cynomolgus GITR protein
T1 chain: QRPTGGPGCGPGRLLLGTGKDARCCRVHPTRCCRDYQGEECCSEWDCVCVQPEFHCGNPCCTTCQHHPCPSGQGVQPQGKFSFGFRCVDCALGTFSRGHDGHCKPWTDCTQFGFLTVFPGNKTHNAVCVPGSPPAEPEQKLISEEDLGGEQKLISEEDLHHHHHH
EXPERIMENT: SPR 37C, mAb capture
Method: (Table 3). […] GITR proteins were injected over the sensor surface at a flow rate of 30 μL/minute. […] Antibody-reagent association was monitored for 4 minutes while dissociation in HBS-ET running buffer (10 mM HEPES, 150 mM NaCl, 3 mM EDTA, 0.05% (v/v) Surfactant P20, pH 7.4) was monitored for 10 minutes. Kinetic association (kₐ) and dissociation (kd) rate constants were determined by fitting the real-time sensorgrams to a 1:1 binding model using Scrubber 2.0c curve fitting software. […]
One number for each entry, in s⁻¹.

• H4H14508P (antibody, human IgG4, V domains shown, human IgG4 (H4H)) VH: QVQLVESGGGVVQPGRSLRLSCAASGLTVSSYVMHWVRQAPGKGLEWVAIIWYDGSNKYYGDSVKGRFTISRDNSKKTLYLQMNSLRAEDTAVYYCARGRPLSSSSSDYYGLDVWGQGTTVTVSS VL: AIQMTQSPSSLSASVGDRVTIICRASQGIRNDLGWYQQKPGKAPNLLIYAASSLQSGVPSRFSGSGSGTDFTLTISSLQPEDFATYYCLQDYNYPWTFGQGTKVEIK = 0.00507
• H4H14530P (antibody, human IgG4, V domains shown, human IgG4 (H4H)) VH: QLQLQESGPGLVKPSETLSLTCTVSGGSISSTNHYWGWIRQPPGKGLEWIGNVYYIGNAYYNPSLKTGVTFSVDTSKNQFSLNLRSVTAADTAMYYCARLSNWNFLDLWGQGTLVTVSS VL: EIVMTQSPATLSVSPGERATLSCRASQSISSNLAWYQQKPGQAPRLLIYGASTRATGIPARFSGSGSGTEFTLTISSLQSEDFAVYYCQQFNNWLSFGGGTKVEIK = 0.000611

# evaluate next
q: Identify measured koff associated with H1H14520P (antibody, human IgG1, V domains shown, human IgG1 (H1H)) VH: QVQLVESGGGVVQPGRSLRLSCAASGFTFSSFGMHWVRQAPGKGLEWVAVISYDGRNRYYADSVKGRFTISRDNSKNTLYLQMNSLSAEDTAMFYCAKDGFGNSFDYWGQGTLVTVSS VL: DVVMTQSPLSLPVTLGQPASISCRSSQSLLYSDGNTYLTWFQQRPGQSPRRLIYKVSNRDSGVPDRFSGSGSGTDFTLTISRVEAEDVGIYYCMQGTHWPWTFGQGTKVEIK
a: 0.0171
